Tested on: ATP;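 further: ATP exposure 15 min at 22 °C before imaging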
METHOD DESCRIPTION: switch fluorescence ratio, 500 uM ATP over buffer (Cy3 cluster intensity, sum of 5 cycles each) (fold (ratio)); higher = stronger signal-on switching upon ATP binding; sequences stand for … in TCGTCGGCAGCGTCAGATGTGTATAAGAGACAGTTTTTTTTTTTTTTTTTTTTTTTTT…TC
CONDITIONS USED: aptamer strand: ATP DNA aptamer (quencher-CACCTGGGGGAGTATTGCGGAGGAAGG + anchor), 100 nM annealed; ATP concentration: 500 uM
Assignment: determine reported switch fluorescence ratio for the given sequences.
A bare number is all that is needed in reply.

### Prompt Fill in: switch fluorescence ratio of `TAAGGCTTAT` is ___
### Response 0.988

### Prompt # lookup: switch fluorescence ratio of `TAATTAATAC`
### Response 1.08

### Prompt Need switch fluorescence ratio, item `GAACTACAGG`
### Response 0.987

### Prompt Sample `AGCATTTTTC` — what was its switch fluorescence ratio?
### Response 1.02

### Prompt // switch fluorescence ratio lookup, key: `TGCGGCGAGG`
### Response 1.02

### Prompt Would you mind telling me what switch fluorescence ratio value was observed for `TTAGCCGCGG` ?
### Response 0.997

### Prompt Which switch fluorescence ratio value belongs to `TGGCCGGGAT` ?
### Response 0.996

### Prompt switch fluorescence ratio lookup needed for `ATTTGGGAGT` , thanks.
### Response 1

### Prompt Item `GTGGACTTTG` has what recorded switch fluorescence ratio?
### Response 0.971

### Prompt Given `TTGGCATAGT` , state its recorded switch fluorescence ratio.
### Response 0.989

### Prompt Tell me the measured switch fluorescence ratio of `TTGGGCACTT` , please.
### Response 0.997

----------
Test system: ATP;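 further: ATP exposure 15 min at 22 °C before imaging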
METHOD DESCRIPTION: switch fluorescence ratio, 500 uM ATP over buffer (Cy3 cluster intensity, sum of 5 cycles each) (fold (ratio)); higher = stronger signal-on switching upon ATP binding; sequences stand for … in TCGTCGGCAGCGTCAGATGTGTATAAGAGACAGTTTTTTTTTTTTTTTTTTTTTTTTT…TC
CONDITIONS USED: aptamer strand: ATP DNA aptamer (quencher-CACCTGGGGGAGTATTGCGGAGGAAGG + anchor), 100 nM annealed; ATP concentration: 500 uM
VALUE KIND: switch fluorescence ratio
// keep it numeric: no unit symbol after the value

### Prompt # input sequence: `AGTTCCGTTG` ; wanted: its switch fluorescence ratio
### Response 1.03

### Prompt Fill in the blank: the reported switch fluorescence ratio of `CTCCGATGAT` is ____.
### Response 3.03

### Prompt Requested read-out: switch fluorescence ratio. Entry: `TATAGGGCAT`
### Response 1.01

### Prompt Using the record for `GGGGCCGAAT` , report its switch fluorescence ratio.
### Response 1.01

### Prompt Could you tell me which switch fluorescence ratio is on file for `TTTTCTTGAA` ?
### Response 0.985

### Prompt Can you look up the measured switch fluorescence ratio of `GTTGTTGTTT` for me?
### Response 0.999

### Prompt Please give the measured switch fluorescence ratio for this sequence: `CAGCTTCCCC`
### Response 1.29

### Prompt Field request: switch fluorescence ratio | item: `AATTGGTTCG`
### Response 0.984

### Prompt I would be grateful if you could share the reported switch fluorescence ratio for `TTTGGCTGTT` .
### Response 0.998

### Prompt switch fluorescence ratio lookup needed for `AGATCCGGGT` , thanks.
### Response 0.992

### Prompt Using the record for `GATTTGGTCT` , report its switch fluorescence ratio.
### Response 1.04

### Prompt State the recorded switch fluorescence ratio for this entry: `CGGGACAGTT`
### Response 1

### Prompt Look up switch fluorescence ratio: `GGCAGCCGGC`
### Response 1.03

### Prompt Which switch fluorescence ratio reading was recorded for the sequence `CCTCTGATTT` ?
### Response 1.47

### Prompt Look up switch fluorescence ratio for this sequence: `GAGGGTTTGA`
### Response 1.01

### Prompt What switch fluorescence ratio value was documented for this sequence, `ATGCGGGGTT` ?
### Response 1.02

### Prompt switch fluorescence ratio for `GCGCTACTAG` ?
### Response 1.02

### Prompt Suppose we examine the sequence `ACGGGTAATC` ; what switch fluorescence ratio value has been reported?
### Response 1.07

### Prompt What measured switch fluorescence ratio goes with `TAGTAGTCAA` ?
### Response 1.03

### Prompt Look at this sequence and give its reported switch fluorescence ratio. `TGCTATCATT`
### Response 1.08

### Prompt Query (sequence): `CATTGAAGAG` ; field requested: switch fluorescence ratio
### Response 0.998

### Prompt Need switch fluorescence ratio of `TTCAGGTGTG` , thanks.
### Response 1.14

### Prompt Given `GAGGGGAGAC` , state its recorded switch fluorescence ratio.
### Response 1.02

### Prompt Could you share which switch fluorescence ratio value was measured for `GGGGTAGTTG` ?
### Response 0.99

### Prompt State the recorded switch fluorescence ratio for this entry: `CGGGCTTGGC`
### Response 1.01

### Prompt Return reported switch fluorescence ratio; argument: `TAGCTCCGGG`
### Response 1.05

### Prompt What does the record list as switch fluorescence ratio for `ACTAGTCACG` ?
### Response 1.07

### Prompt Recorded switch fluorescence ratio of `ACTAATGGTT` , please.
### Response 1.03

### Prompt Dear colleague, I am looking for the recorded switch fluorescence ratio of the following sequence: `TTTTTTATAT`
### Response 0.987

### Prompt Which switch fluorescence ratio is reported for this sequence? `TTAATATTTG`
### Response 1.01

### Prompt Quick one: switch fluorescence ratio of `AGATTTTGTG` ?
### Response 0.992

### Prompt Form field: reported switch fluorescence ratio of `TGAGAGTAT`
### Response 1.01

### Prompt Return reported switch fluorescence ratio; argument: `ATGGAGCTAC`
### Response 4.67

### Prompt Which switch fluorescence ratio is reported for this sequence? `GGGGAAGGCA`
### Response 0.946

### Prompt Look up switch fluorescence ratio: `GGGTACGTTT`
### Response 0.972

### Prompt Reported switch fluorescence ratio for `TTTGACAGGA` : what is it?
### Response 1.06

### Prompt Fill in: switch fluorescence ratio of `CGGATCGACT` is ___
### Response 0.977

----------
System: ATP;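 further: ATP exposure 15 min at 22 °C before imaging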
METHOD DESCRIPTION: switch fluorescence ratio, 500 uM ATP over buffer (Cy3 cluster intensity, sum of 5 cycles each) (fold (ratio)); higher = stronger signal-on switching upon ATP binding; sequences stand for … in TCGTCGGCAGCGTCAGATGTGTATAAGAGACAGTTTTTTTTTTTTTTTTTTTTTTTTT…TC
CONDITIONS USED: aptamer strand: ATP DNA aptamer (quencher-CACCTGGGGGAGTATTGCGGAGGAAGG + anchor), 100 nM annealed; ATP concentration: 500 uM
VALUE KIND: switch fluorescence ratio
Just the number.

### Prompt Would you kindly share the measured switch fluorescence ratio for `CGGGGGTGA` ?
### Response 1.01

### Prompt State the recorded switch fluorescence ratio for this entry: `GGGTTAAATT`
### Response 1.01

### Prompt Quick one: switch fluorescence ratio for `GAGAAACATT` ?
### Response 1.06

### Prompt What value of switch fluorescence ratio has been recorded for this entry: `ATTGACTCTT`
### Response 1

### Prompt I'd like to know its switch fluorescence ratio. The sequence in question is `TTTTGCGATT`
### Response 1.02

### Prompt If you can, please state the reported switch fluorescence ratio value of `GCTCGGGGGG` .
### Response 0.987

### Prompt # lookup: switch fluorescence ratio of `AGAAAGAGGT`
### Response 1.01

### Prompt Which measured switch fluorescence ratio value corresponds to `AAAAGTAGTT` ?
### Response 1.01

### Prompt Report switch fluorescence ratio for `CGCATTTTGC` please.
### Response 1.19

### Prompt Quick one: switch fluorescence ratio for `GAGTCGGTGG` ?
### Response 1.4

### Prompt Entry under review: `GCTTTTTGCT` . Reported switch fluorescence ratio?
### Response 1.01

### Prompt Request the reported switch fluorescence ratio associated with `TAAGGGGTAA`
### Response 0.947

### Prompt # input sequence: `GCATTGGATA` ; wanted: its switch fluorescence ratio
### Response 1

### Prompt Given the entry `GGCTGGATGG` , report its measured switch fluorescence ratio.
### Response 0.961

### Prompt Recorded switch fluorescence ratio for `ATAAGACGTT` , please?
### Response 1.01

### Prompt Recorded switch fluorescence ratio for `ATGGGCTCTT` , please?
### Response 1.04

### Prompt I would be grateful if you could share the reported switch fluorescence ratio for `TTGAGCCGGT` .
### Response 1
